# target_system: CYP3A4 (Homo sapiens (Human))
# Sequence (P08684 whole entry): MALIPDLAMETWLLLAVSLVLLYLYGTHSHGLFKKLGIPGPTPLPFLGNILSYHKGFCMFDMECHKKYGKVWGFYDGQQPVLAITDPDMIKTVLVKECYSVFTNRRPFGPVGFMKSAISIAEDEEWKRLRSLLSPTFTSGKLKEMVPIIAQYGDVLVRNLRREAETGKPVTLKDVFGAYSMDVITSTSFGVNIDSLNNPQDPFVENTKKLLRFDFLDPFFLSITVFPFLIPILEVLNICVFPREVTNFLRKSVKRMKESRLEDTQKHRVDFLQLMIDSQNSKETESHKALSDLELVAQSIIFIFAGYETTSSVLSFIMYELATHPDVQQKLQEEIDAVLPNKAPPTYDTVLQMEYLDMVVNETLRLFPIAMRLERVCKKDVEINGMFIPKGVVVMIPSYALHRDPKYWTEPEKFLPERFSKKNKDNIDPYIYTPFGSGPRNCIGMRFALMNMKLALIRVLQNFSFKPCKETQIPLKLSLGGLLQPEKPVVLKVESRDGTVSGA
# assay_comment: Mechanism based inhibition of CYP3A4 assay (MBI 3A4)
# Assay type: in vitro ADME
# condition_summary: hydroxy-midazolam formation after 30 min vs 0 min preincubation, 25 uM, human liver microsomes
endpoint_label: MBI 3A4 (%)

// below: answered compounds
CO[C@@H]1C[C@@H]([C@H](C)Oc2cc(-c3cnn(C)n3)nc(-c3noc4c3CCC[C@@]43CCCc4sc(N)c(C#N)c43)n2)N(C)C1 [II-62]	53
C[C@H](Oc1cc(N2CCNC3(CCC3)C2)nc(-c2onc3c2CCC[C@@]32CCCc3sc(N)c(C#N)c32)n1)[C@@H]1CCCN1C [I-3]	51
C[C@H](Oc1cc(N2CC[C@H](N3CCCC3)C2)nc(-c2noc3c2CCC[C@@]32CCCc3sc(N)c(C#N)c32)n1)[C@@H]1CCCN1C [II-14]	83

[A] C[C@H](Oc1cc(-n2ccnn2)nc(-c2onc3c2CCC[C@@]32CCCc3sc(N)c(C#N)c32)n1)[C@@H]1CCCN1C [I-32]
[B] C[C@H](Oc1cc(-n2cc3c(n2)CCNC3)nc(-c2noc3c2CCC[C@@]32CCCc3sc(N)c(C#N)c32)n1)[C@@H]1CCCN1C [II-53]
Given A and given B , which shows the smaller recorded MBI 3A4? Your choice should be expressed through its label.
A

[1] C[C@H](Oc1cc(-n2ccc(C(=O)N[C@@H]3CCOC3)n2)nc(-c2noc3c2CCC[C@@]32CCCc3sc(N)c(C#N)c32)n1)[C@@H]1CCCN1C [II-192]
[2] C[C@H](Oc1cc(-n2cncc3ccnc2-3)nc(-c2onc3c2CCC[C@@]32CCCc3sc(N)c(C#N)c32)n1)[C@@H]1CCCN1C [I-14]
Hi, I'm comparing two records. Which one has the lower MBI 3A4, 1 or 2 ? Reply with the label of the item you choose.
1

Each recorded value in this set is attributed to patent US20240174690A1.
